- System name: T1, epitope tag peptide SRLEEELRRRLTE (SEQ ID NO: 2), biotinylated (also: biotinylated (site and linker not given here))
- T1 construct: Rationally designed peptide; also called ALFA-tag
- T1 peptide: SRLEEELRRRLTE
- Experimental protocol: BLI (Octet), biotinylated peptide on SAX2.0 biosensors, 1:1 global fit
Ends that are not written are not given here.
Reported metric: Kd (nM)
Report the value in nM with no unit label.

Problem: Which Kd is listed for Variant 12 of humanized NbALFA (VHH) VHH: EVQLVESGGGLVQPGGSLRLSCAASGVTISALNAMAMGWYRQAPGKRREMVAAVSERGNTMYRESVKGRFTISRDNAKRMVYLQMNSLRAEDTAVYYCHVLEDRVDSFHDYWGQGTQVTVSS ?
Solution: 0.248

Problem: Which Kd is listed for Variant 9 of humanized NbALFA (VHH, Further engineered humanized variant; Any tag on the tested construct is not described) VHH: EVQLVESGGGLVQPGGSLRLSCAASGVTISALNAMAMGWYRQAPGKRREMVAAVSERGNAMYRESVQGRFTISRDNAKRMVYLQMNSLRAEDTAVYYCHVLEDRVDSFHDYWGQGTQVTVSS ?
Solution: 0.182
